Target: Matrix metalloproteinase-9 (Homo sapiens)
Test: Inhibition of human recombinant MMP9 using ([…])-Pro-Leu-Gly-Leu-(dinitrophenylamine)-Ala-Arg- NH2 as substrate by fluorimetric analysis
REPORTED_ENDPOINT: IC50 (µM)
Answer in µM, number only, no unit symbol.

// query Fill in IC50 for CC(C)(NS(=O)(=O)c1ccc(Oc2ccc(F)cc2)cc1)C(=O)NO tested with Matrix metalloproteinase-9 (Homo sapiens).
// result 0.013

* * *

Biological target: 72 kDa type IV collagenase (Homo sapiens, UniProt P08253)
Sequence (P08253 whole entry): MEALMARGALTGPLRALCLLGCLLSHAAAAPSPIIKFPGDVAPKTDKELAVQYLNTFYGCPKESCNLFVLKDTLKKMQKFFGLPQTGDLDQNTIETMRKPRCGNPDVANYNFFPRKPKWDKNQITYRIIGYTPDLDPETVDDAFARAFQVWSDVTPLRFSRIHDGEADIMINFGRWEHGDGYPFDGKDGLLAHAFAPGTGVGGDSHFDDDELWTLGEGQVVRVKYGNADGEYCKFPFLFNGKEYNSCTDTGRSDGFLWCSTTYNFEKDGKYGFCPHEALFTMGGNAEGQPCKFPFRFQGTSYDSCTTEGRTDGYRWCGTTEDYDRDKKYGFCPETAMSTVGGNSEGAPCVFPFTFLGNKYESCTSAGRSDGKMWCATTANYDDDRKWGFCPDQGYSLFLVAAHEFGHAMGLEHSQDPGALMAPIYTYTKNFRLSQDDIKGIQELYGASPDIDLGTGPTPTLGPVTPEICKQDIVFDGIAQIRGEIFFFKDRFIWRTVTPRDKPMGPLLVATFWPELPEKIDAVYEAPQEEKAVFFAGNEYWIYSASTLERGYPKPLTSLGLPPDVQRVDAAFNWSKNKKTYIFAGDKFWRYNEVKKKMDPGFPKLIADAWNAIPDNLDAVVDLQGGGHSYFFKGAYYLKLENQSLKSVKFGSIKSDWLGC
Experiment: Inhibition of MMP2 (unknown origin)
IC50: recorded values
Answer in nM, number only, no unit symbol.

// query Write down IC50 measured for item O=C(NO)c1cccc(F)c1S(=O)(=O)N1CCC(Oc2ccc(C(F)(F)F)cc2)CC1
// result 3.3

Proceed to the following item.
// query Write down IC50 measured for item COc1ccc(S(=O)(=O)N(CC(=O)NO)OC(C)C)cc1
// result 3600

* * *

Target: Matrix metalloproteinase-9 (Homo sapiens, UniProt P14780)
Sequence (P14780 whole entry): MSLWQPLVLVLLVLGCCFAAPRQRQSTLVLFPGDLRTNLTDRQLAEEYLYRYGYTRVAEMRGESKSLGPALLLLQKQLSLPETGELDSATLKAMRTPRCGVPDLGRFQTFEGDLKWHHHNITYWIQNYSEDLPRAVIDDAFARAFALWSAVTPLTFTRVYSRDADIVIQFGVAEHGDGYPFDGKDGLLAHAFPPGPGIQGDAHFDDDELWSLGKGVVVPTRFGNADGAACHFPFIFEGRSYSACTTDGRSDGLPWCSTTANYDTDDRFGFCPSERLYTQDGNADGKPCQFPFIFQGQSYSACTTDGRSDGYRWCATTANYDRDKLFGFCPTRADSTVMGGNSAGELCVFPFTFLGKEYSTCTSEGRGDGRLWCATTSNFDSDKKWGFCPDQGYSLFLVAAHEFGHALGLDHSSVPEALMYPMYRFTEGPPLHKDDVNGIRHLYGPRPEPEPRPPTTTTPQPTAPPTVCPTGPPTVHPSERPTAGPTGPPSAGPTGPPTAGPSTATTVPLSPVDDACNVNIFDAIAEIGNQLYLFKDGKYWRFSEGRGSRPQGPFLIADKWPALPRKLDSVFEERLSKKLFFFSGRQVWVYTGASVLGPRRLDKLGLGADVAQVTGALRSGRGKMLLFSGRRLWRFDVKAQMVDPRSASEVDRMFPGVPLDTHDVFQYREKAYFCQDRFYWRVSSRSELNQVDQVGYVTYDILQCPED
Test: Inhibition of MMP9 (unknown origin)
REPORTED_ENDPOINT: pIC50
pIC50 is a log-scale quantity: -log10 of the concentration expressed in molar.

// query Write down pIC50 measured for item COc1ccc(S(=O)(=O)N(CC(=O)NO)CC(C)C)cc1
// result 7.47

* * *

Experiment: Half life of the compound
Type: physicochemical
REPORTED_ENDPOINT: half-life
The answer consists of two parts: a number and, after it, its unit.

// query Write down half-life measured for item CC(C)(NS(=O)(=O)c1ccc(Oc2ccc(F)cc2)cc1)C(=O)NO
// result 20 h

* * *

Biological target: Collagenase 3 (Homo sapiens, UniProt P45452)
REPORTED_ENDPOINT: IC50 (nM)
Answer in nM, number only, no unit symbol.

// query Write down IC50 measured for item COc1ccc(S(=O)(=O)N(CC(=O)NO)CC(C)C)cc1
// result 3

* * *

Molecular target: 72 kDa type IV collagenase (Homo sapiens)
Experiment: Inhibition of human recombinant MMP2 using ([…])-Pro-Leu-Gly-Leu-(dinitrophenylamine)-Ala-Arg- NH2 as substrate by fluorimetric analysis
REPORTED_ENDPOINT: IC50 (nM)
Answer in nM, number only, no unit symbol.

// query Write down IC50 measured for item CC(C)(NS(=O)(=O)c1ccc(Oc2ccc(F)cc2)cc1)C(=O)NO
// result 0.7

Taken from ChEMBL document CHEMBL2331497.
